target: purified recombinant human Aggrecanase-1 (rAgg1) (Homo sapiens, UniProt O75173); test: In vitro fluorescence screen for Aggrecanase-1 inhibitors; format: biochemical; settings: Table 1; read-out: Agg1 IC50
Sequence (O75173 213-837): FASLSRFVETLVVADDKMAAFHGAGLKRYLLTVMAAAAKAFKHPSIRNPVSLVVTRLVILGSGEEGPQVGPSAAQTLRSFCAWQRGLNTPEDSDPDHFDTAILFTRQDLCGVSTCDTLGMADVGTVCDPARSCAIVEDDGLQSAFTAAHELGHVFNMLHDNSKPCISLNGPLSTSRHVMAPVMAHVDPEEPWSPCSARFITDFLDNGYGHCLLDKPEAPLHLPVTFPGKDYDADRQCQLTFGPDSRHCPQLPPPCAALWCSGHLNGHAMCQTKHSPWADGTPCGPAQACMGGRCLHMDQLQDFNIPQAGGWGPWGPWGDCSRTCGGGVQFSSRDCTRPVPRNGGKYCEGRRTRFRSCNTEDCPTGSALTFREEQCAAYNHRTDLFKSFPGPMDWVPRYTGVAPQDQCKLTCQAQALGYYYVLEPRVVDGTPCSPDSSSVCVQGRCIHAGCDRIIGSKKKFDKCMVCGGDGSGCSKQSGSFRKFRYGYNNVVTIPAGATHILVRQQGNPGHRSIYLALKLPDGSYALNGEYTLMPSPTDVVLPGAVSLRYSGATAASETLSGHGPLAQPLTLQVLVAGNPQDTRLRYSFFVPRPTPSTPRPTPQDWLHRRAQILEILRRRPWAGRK
pIC50: −log10 of the molar value.
Reported pIC50 values for the following molecules.
readout: pIC50

molecule	quantitative.readout
C#Cc1ccc(-c2ccc(C(=O)N[C@@H](CCC(=O)O)C(=O)NCc3ccccc3)cc2)cc1 [Example 12B]	4.46
Cc1ccc(CNC(=O)[C@H](CCC(=O)O)NC(=O)c2ccc(-c3ccccc3)cc2)cc1 [Example 8III]	6.92
O=C(O)CC[C@H](NC(=O)c1ccc(-c2ccccc2)cc1)C(=O)NCc1ccc(F)cc1 [Example 8D]	6.66

====

biological target: purified recombinant human Aggrecanase-2 (Ag2t-Phe628-Strep) (Homo sapiens, UniProt Q9UNA0); construct: the form used is denoted as Ag2t-Phe628-Strep (MW=41,737); assay: In vitro fluorescence screen for Aggrecanase-2 inhibitors; format: biochemical; settings: Table 3; read-out: Agg 2 IC50
Sequence (Q9UNA0 262-628): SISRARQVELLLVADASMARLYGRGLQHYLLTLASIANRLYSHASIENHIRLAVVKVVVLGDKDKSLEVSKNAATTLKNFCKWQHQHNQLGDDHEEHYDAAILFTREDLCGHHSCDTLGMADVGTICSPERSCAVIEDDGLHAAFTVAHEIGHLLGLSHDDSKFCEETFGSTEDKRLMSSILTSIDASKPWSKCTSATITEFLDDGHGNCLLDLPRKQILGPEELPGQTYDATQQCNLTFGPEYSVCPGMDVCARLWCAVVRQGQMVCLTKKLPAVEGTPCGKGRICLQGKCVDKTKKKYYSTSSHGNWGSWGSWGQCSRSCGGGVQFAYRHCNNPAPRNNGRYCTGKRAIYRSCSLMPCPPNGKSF
pIC50: −log10 of the molar value.
Classify by measured pIC50: fulfilled if it is equal to or exceeds 6, not fulfilled if it is smaller.

compound	group.label
CC(C)(Cc1ccccc1)NC(=O)[C@H](CCC(=O)O)NC(=O)c1ccc(-c2cncnc2)cc1	not fulfilled
COc1cc(COc2ccc(-c3ccc(C(=O)N[C@@H](CCC(=O)O)C(=O)NC(C)(C)Cc4ccc(F)cc4)cc3)cc2)cc(OC)c1 [Example 15N]	fulfilled
CC(C)(Cc1ccc(F)cc1)NC(=O)[C@H](CCC(=O)O)NC(=O)c1ccc(-c2cccc(F)c2)cc1	fulfilled
CC(C)(Cc1ccc(Cl)cc1)NC(=O)[C@H](CCC(=O)O)NC(=O)c1ccc(-c2ccc(F)cc2F)cc1	fulfilled

====

Reported IC50 values for the following compounds.
biological target: recombinant human catalytic domain of MMP-13 (Homo sapiens); construct: catalytic domain of MMP-13 (165 amino acids, residues 104-268, 19 kDa); test: In vitro fluorescence assay of MMP-13 activity; type: biochemical; settings: Table 1; unit inferred

compound	target.or.system	IC50
O=C(O)CC[C@H](NC(=O)c1ccc(-c2ccccc2)cc1)C(=O)NCc1ccc(Cl)c(Cl)c1	recombinant human catalytic domain of MMP-13 (Homo sapiens)	19 µM
CC(C)(Cc1ccc(F)cc1)NC(=O)[C@H](CCC(=O)O)NC(=O)c1ccc(-c2ccccc2)cc1	recombinant human catalytic domain of MMP-13 (Homo sapiens)	> 50 µM
Cc1cccc(CNC(=O)[C@H](CCC(=O)O)NC(=O)c2ccc(-c3ccccc3)cc2)c1	recombinant human catalytic domain of MMP-13 (Homo sapiens)	31.4 µM
O=C(O)CC[C@H](NC(=O)c1ccc(-c2ccccc2)cc1)C(=O)NCc1cccc(-c2cccs2)c1 [Example 10N]	recombinant human catalytic domain of MMP-13 (Homo sapiens)	> 50 µM
COc1cc(CNC(=O)[C@H](CCC(=O)O)NC(=O)c2ccc(-c3ccccc3)cc2)cc(OC)c1OC	recombinant human catalytic domain of MMP-13 (Homo sapiens)	42.4 µM
C=Cc1ccc(CNC(=O)[C@H](CCC(=O)O)NC(=O)c2ccc(-c3ccccc3)cc2)cc1 [Example 10R]	recombinant human catalytic domain of MMP-13 (Homo sapiens)	> 20 µM
COc1cc(CNC(=O)[C@H](CCC(=O)NO)NC(=O)c2ccc(-c3ccccc3)cc2)cc(OC)c1OC [Example 33A]	recombinant human catalytic domain of MMP-13 (Homo sapiens)	0.032 µM
O=C(O)CC[C@H](NC(=O)c1ccc(-c2ccccc2)cc1)C(=O)NCCc1ccccc1Cl	recombinant human catalytic domain of MMP-13 (Homo sapiens)	~50 µM
Cc1ccc(CNC(=O)[C@H](CCC(=O)O)NC(=O)c2ccc(-c3ccccc3)cc2)cc1C	recombinant human catalytic domain of MMP-13 (Homo sapiens)	~22 µM
CC(C)(Cc1ccccc1)NC(=O)[C@H](CCC(=O)O)NC(=O)c1ccc(-c2ccccc2)cc1	recombinant human catalytic domain of MMP-13 (Homo sapiens)	~50 µM
COc1ccc(CNC(=O)[C@H](CCC(=O)O)NC(=O)c2ccc(-c3ccccc3)cc2)c(OC)c1	recombinant human catalytic domain of MMP-13 (Homo sapiens)	~67 µM
C=Cc1cccc(CNC(=O)[C@H](CCC(=O)O)NC(=O)c2ccc(-c3ccccc3)cc2)c1 [Example 10M]	recombinant human catalytic domain of MMP-13 (Homo sapiens)	~20 µM
O=C(O)CC[C@H](NC(=O)c1ccc(-c2ccccc2)cc1)C(=O)NCc1ccc(I)cc1	recombinant human catalytic domain of MMP-13 (Homo sapiens)	24 µM
O=C(O)CC[C@H](NC(=O)c1ccc(-c2ccccc2)cc1)C(=O)NC1CCCCCCC1	recombinant human catalytic domain of MMP-13 (Homo sapiens)	~25 µM
COc1ccc(CCNC(=O)[C@H](CCC(=O)O)NC(=O)c2ccc(-c3ccccc3)cc2)cc1	recombinant human catalytic domain of MMP-13 (Homo sapiens)	~50 µM
O=C(O)CC[C@H](NC(=O)c1ccc(-c2ccccc2)cc1)C(=O)NCc1ccc2c(c1)OCO2	recombinant human catalytic domain of MMP-13 (Homo sapiens)	~13 µM
Cc1cc(C)cc(-c2ccc(C(=O)N[C@@H](CCC(=O)O)C(=O)NCc3ccccc3)cc2)c1 [Example 13A]	recombinant human catalytic domain of MMP-13 (Homo sapiens)	> 100 µM
O=C(O)CC[C@H](NC(=O)c1ccc(-c2ccccc2)cc1)C(=O)NCc1ccc(F)c(C(F)(F)F)c1	recombinant human catalytic domain of MMP-13 (Homo sapiens)	14 µM
O=C(O)CC[C@H](NC(=O)c1ccc(-c2ccccc2)cc1)C(=O)NCCc1ccc(F)cc1	recombinant human catalytic domain of MMP-13 (Homo sapiens)	~50 µM
CCCCNC(=O)[C@H](CCC(=O)O)NC(=O)c1ccc(-c2ccccc2)cc1	recombinant human catalytic domain of MMP-13 (Homo sapiens)	~50 µM
O=C(O)CC[C@H](NC(=O)c1ccc(-c2ccccc2)cc1)C(=O)NC1C2CC3CC(C2)CC1C3 (stereo partly shown)	recombinant human catalytic domain of MMP-13 (Homo sapiens)	~50 µM
O=C(O)CC[C@H](NC(=O)c1ccc(-c2ccccc2)cc1)C(=O)NCc1ccc(Cl)cc1Cl	recombinant human catalytic domain of MMP-13 (Homo sapiens)	> 200 µM
CC(C)(Cc1ccc(Cl)cc1)NC(=O)[C@H](CCC(=O)O)NC(=O)c1ccc(-c2ccccc2)cc1	recombinant human catalytic domain of MMP-13 (Homo sapiens)	~50 µM
O=C(O)CC[C@H](NC(=O)c1ccc(-c2ccco2)cc1)C(=O)NCc1ccccc1 [Example 12A]	recombinant human catalytic domain of MMP-13 (Homo sapiens)	~6 µM
CSc1ccc(CNC(=O)[C@H](CCC(=O)O)NC(=O)c2ccc(-c3ccccc3)cc2)cc1	recombinant human catalytic domain of MMP-13 (Homo sapiens)	~67 µM
COc1cccc(CNC(=O)[C@H](CCC(=O)O)NC(=O)c2ccc(-c3ccccc3)cc2)c1	recombinant human catalytic domain of MMP-13 (Homo sapiens)	37.3 µM
COc1ccc(CNC(=O)[C@H](CCC(=O)O)NC(=O)c2ccc(-c3ccccc3)cc2)cc1OC	recombinant human catalytic domain of MMP-13 (Homo sapiens)	~22 µM
O=C(O)CC[C@H](NC(=O)c1ccc(-c2ccccc2)cc1)C(=O)NCCCCCCO	recombinant human catalytic domain of MMP-13 (Homo sapiens)	~50 µM
O=C(O)CC[C@H](NC(=O)c1ccc(-c2ccccc2)cc1)C(=O)NCc1ccc(Oc2ccccc2)cc1	recombinant human catalytic domain of MMP-13 (Homo sapiens)	~22 µM
CC(C)(C)NC(=O)[C@H](CCC(=O)O)NC(=O)c1ccc(-c2ccccc2)cc1	recombinant human catalytic domain of MMP-13 (Homo sapiens)	> 50 µM
O=C(O)CC[C@H](NC(=O)c1ccc(-c2ccccc2)cc1)C(=O)NC1CCCCC1	recombinant human catalytic domain of MMP-13 (Homo sapiens)	~40 µM

====

Reported pIC50 values for the following compounds.
molecular target: purified recombinant human Aggrecanase-2 (Ag2t-Phe628-Strep) (Homo sapiens, UniProt Q9UNA0); construct: the form used is denoted as Ag2t-Phe628-Strep (MW=41,737); assay: In vitro fluorescence screen for Aggrecanase-2 inhibitors; type: biochemical; conditions: Table 2; read-out: Agg 2 IC50
pIC50: −log10 of the molar value.

compound	pIC50
O=C(O)CC[C@H](NC(=O)c1ccc(-c2ccc(OCc3cccc(F)c3)cc2)cc1)C(=O)NCc1ccccc1 [Example 15I]	5.80
CC(C)(Cc1ccc(F)cc1)NC(=O)[C@H](CCC(=O)O)NC(=O)c1ccc2c(c1)Cc1ccccc1-2	7.20
COc1cc(COc2ccc(-c3ccc(C(=O)N[C@@H](CCC(=O)O)C(=O)NCc4cc(OC)c(OC)c(OC)c4)cc3)cc2)cc(OC)c1	7.30

====

Target: recombinant human MMP-2 (Homo sapiens)
Sequence (P08253 110-660): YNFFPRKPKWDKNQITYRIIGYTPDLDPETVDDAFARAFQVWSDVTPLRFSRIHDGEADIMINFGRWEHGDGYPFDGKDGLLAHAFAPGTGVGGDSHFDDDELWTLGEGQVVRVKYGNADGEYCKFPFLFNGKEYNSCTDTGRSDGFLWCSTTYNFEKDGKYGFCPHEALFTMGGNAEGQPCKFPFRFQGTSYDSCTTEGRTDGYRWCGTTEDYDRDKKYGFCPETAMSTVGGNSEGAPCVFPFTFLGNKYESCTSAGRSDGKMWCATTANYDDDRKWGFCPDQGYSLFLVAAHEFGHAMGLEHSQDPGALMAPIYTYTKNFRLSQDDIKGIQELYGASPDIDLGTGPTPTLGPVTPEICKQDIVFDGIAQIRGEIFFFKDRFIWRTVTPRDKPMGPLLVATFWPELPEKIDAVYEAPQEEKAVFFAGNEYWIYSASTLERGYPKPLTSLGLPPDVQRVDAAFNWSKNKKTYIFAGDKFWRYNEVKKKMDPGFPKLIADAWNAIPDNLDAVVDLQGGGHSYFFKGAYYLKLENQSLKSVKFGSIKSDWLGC
Assay: In vitro fluorescence assay of MMP-2 activity
IC50 vs 4 µM: less than gives 1.0; not less than gives 0.0.

molecule	group.label
O=C(O)CC[C@H](NC(=O)c1ccc(-c2ccccc2)cc1)C(=O)NCc1cccc(-c2cccs2)c1 [Example 10N]	0.0
O=C(O)CC[C@H](NC(=O)c1ccc(-c2ccccc2)cc1)C(=O)NCCc1ccc(F)cc1	0.0
COc1cc(CNC(=O)[C@H](CCC(=O)O)NC(=O)c2ccc(-c3ccccc3)cc2)cc(OC)c1OC	0.0
O=C(O)CC[C@H](NC(=O)c1ccc(-c2ccccc2)cc1)C(=O)NCc1cccc(I)c1	0.0
CC(C)(Cc1ccc(Cl)cc1)NC(=O)[C@H](CCC(=O)O)NC(=O)c1ccc(-c2cccc(Cl)c2)cc1	0.0
Cc1ccc(-c2ccc(C(=O)N[C@@H](CCC(=O)O)C(=O)NC(C)(C)Cc3ccc(F)cc3)cc2)s1	1.0
CC(C)(Cc1ccc(F)cc1)NC(=O)[C@H](CCC(=O)O)NC(=O)c1ccc(-c2ccc(Cl)s2)cc1	1.0
COc1cccc(CNC(=O)[C@H](CCC(=O)O)NC(=O)c2ccc(-c3ccccc3)cc2)c1	0.0
O=C(O)CC[C@H](NC(=O)c1ccc(-c2ccccc2)cc1)C(=O)NCCCCCO	0.0
O=C(O)CC[C@H](NC(=O)c1ccc(-c2ccccc2)cc1)C(=O)NC1C2CC3CC(C2)CC1C3 (stereo partly shown)	1.0
O=C(O)CC[C@H](NC(=O)c1ccc(-c2ccccc2)cc1)C(=O)NCc1ccc(Cl)cc1Cl	1.0
CC(C)(Cc1ccccc1)NC(=O)[C@H](CCC(=O)O)NC(=O)c1ccc(-c2ccc(Br)s2)cc1	1.0
CC(C)(Cc1ccccc1)NC(=O)[C@H](CCC(=O)O)NC(=O)c1ccc(-c2ccc(F)cc2)s1	0.0
CC(C)(Cc1ccc(Cl)cc1)NC(=O)[C@H](CCC(=O)O)NC(=O)c1ccc(-c2ccccc2)cc1	0.0
O=C(O)CC[C@H](NC(=O)c1ccc(-c2ccccc2)cc1)C(=O)NCc1ccc2c(c1)OCO2	1.0
CC(C)(Cc1ccc(F)cc1)NC(=O)[C@H](CCC(=O)O)NC(=O)c1ccc(-c2ccccc2)cc1	0.0
O=C(O)CC[C@H](NC(=O)c1ccc(-c2ccccc2)cc1)C(=O)NCCc1ccccc1Cl	0.0
O=C(O)CC[C@H](NC(=O)c1ccc(-c2ccccc2)cc1)C(=O)NC1CCCCC1	0.0
COc1ccc(CNC(=O)[C@H](CCC(=O)O)NC(=O)c2ccc(-c3ccccc3)cc2)cc1OC	0.0
CC(C)(Cc1ccccc1)NC(=O)[C@H](CCC(=O)O)NC(=O)c1ccc(-c2cccc(F)c2)cc1	0.0
CCCCNC(=O)[C@H](CCC(=O)O)NC(=O)c1ccc(-c2ccccc2)cc1	0.0
O=C(O)CC[C@H](NC(=O)c1ccc(-c2ccccc2)cc1)C(=O)NCc1ccc(Cl)c(Cl)c1	1.0
CC(C)(Cc1ccc(F)cc1)NC(=O)[C@H](CCC(=O)O)NC(=O)c1ccc(-c2ccc(Br)s2)cc1	1.0
O=C(O)CC[C@H](NC(=O)c1ccc(-c2ccccc2)cc1)C(=O)NC1CC1	0.0
CC(C)(Cc1ccc(Cl)s1)NC(=O)[C@H](CCC(=O)O)NC(=O)c1ccc(-c2cccc(F)c2)cc1	0.0
COc1cc(CNC(=O)[C@H](CCC(=O)O)NC(=O)c2ccc(-c3ccccc3)cc2)cc(OC)c1	0.0
CC(C)(Cc1ccc(F)cc1)NC(=O)[C@H](CCC(=O)O)NC(=O)c1ccc(-c2ccc(Cl)cc2)s1	0.0
CC(C)(C)CNC(=O)[C@H](CCC(=O)O)NC(=O)c1ccc(-c2ccccc2)cc1	0.0
